- Tested on: 883617-216-R-J1-PDC complex spheroid viability;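 note: spheroids exposed to compounds for seven days before readout; 100% = DMSO vehicle control viability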
- testDetails: Anticancer human tumor 883617-216-R-J1-PDC patient-derived bladder carcinoma cell line growth inhibition [POLQ]
- details: second compound 10 µM; first compound 0.0316 µM; active compounds read low
Some compounds, each annotated with its measured viability, T/C.

compound: C=CCn1c(=O)c2cnc(Nc3ccc(N4CCN(C)CC4)cc3)nc2n1-c1cccc(C(C)(C)O)n1 + Nc1ccc(C#CCN(C(=O)Cc2ncc(C(F)(F)F)cc2C(F)(F)F)c2ccc(F)cc2)nn1
viability, T/C [%]: 108
//
compound: CC(C)n1c(=O)n(C)c2cnc3cc(F)c(-c4ccc(OCCCN5CCCCC5)nc4)cc3c21 + COC1C(OC(N)=O)C(O)C(Oc2ccc3c(O)c(NC(=O)c4ccc(O)c(CC=C(C)C)c4)c(=O)oc3c2C)OC1(C)C
viability, T/C [%]: 106
//
compound: CC[C@@]1(O)C(=O)OCc2c1cc1n(c2=O)Cc2cc3c(CN(C)C)c(O)ccc3nc2-1 + Cc1cccc(N(C)C(=O)C2C(O)CCN2c2nc(C)cc(C(F)(F)F)c2C#N)c1
viability, T/C [%]: 67.7
//
compound: CCCS(=O)(=O)Nc1ccc(F)c(C(=O)c2c[nH]c3ncc(-c4ccc(Cl)cc4)cc23)c1F + Cc1cccc(N(C)C(=O)C2C(O)CCN2c2nc(C)cc(C(F)(F)F)c2C#N)c1
viability, T/C [%]: 98.2
//
compound: O=C(c1cc(Cc2n[nH]c(=O)c3ccccc23)ccc1F)N1CCN(C(=O)C2CC2)CC1 + Nc1ccc(C#CCN(C(=O)Cc2ncc(C(F)(F)F)cc2C(F)(F)F)c2ccc(F)cc2)nn1
viability, T/C [%]: 97
//
compound: CNCc1ccc(-c2[nH]c3cc(F)cc4c3c2CCNC4=O)cc1 + Cc1cccc(N(C)C(=O)C2C(O)CCN2c2nc(C)cc(C(F)(F)F)c2C#N)c1
viability, T/C [%]: 106
//
compound: C#Cc1c(F)ccc2cc(O)cc(-c3ncc4c(N5CC6CCC(C5)N6)nc(OCC56CCCN5CC(F)C6)nc4c3F)c12 (stereo unspecified) + Nc1ccc(C#CCN(C(=O)Cc2ncc(C(F)(F)F)cc2C(F)(F)F)c2ccc(F)cc2)nn1
viability, T/C [%]: 102
//
compound: C=CCn1c(=O)c2cnc(Nc3ccc(N4CCN(C)CC4)cc3)nc2n1-c1cccc(C(C)(C)O)n1 + Cc1cccc(N(C)C(=O)C2C(O)CCN2c2nc(C)cc(C(F)(F)F)c2C#N)c1
viability, T/C [%]: 119
//
compound: CC1COCCN1c1cc(C2(S(C)(=N)=O)CC2)nc(-c2ccnc3[nH]ccc23)n1 (stereo unspecified) + Nc1ccc(C#CCN(C(=O)Cc2ncc(C(F)(F)F)cc2C(F)(F)F)c2ccc(F)cc2)nn1
viability, T/C [%]: 98.1
//
compound: COc1cccc(OCCCN)c1-c1cc(Nc2cnc(C#N)cn2)n[nH]1 + COC1C(OC(N)=O)C(O)C(Oc2ccc3c(O)c(NC(=O)c4ccc(O)c(CC=C(C)C)c4)c(=O)oc3c2C)OC1(C)C
viability, T/C [%]: 50.9
//
compound: C=CCn1c(=O)c2cnc(Nc3ccc(N4CCN(C)CC4)cc3)nc2n1-c1cccc(C(C)(C)O)n1 + COC1C(OC(N)=O)C(O)C(Oc2ccc3c(O)c(NC(=O)c4ccc(O)c(CC=C(C)C)c4)c(=O)oc3c2C)OC1(C)C
viability, T/C [%]: 105
